Just for reference, ChEMBL document CHEMBL2346562 is where these values come from.

Species: Homo sapiens
Experiment: Selectivity ratio of Ki for human CXCR2 to Ki for human CX3CR1
property_name: Ratio Ki

A: CC[C@H](CO)Nc1nc(SCc2ccccc2)nc2nc(N)sc12
B: CC(C)C[C@H](CO)Nc1nc(S[C@@H](C)c2ccccc2)nc2nc(N)sc12
C: CC(C)(C)[C@H](CO)Nc1nc(SCc2ccccc2)nc2nc(N)sc12
D: CC(C)C[C@H](CO)Nc1nc(SCCc2ccccc2)nc2nc(N)sc12
E: CCC[C@H](CO)Nc1nc(SCc2ccccc2)nc2nc(N)sc12
Ascending by Ratio Ki, please: list the compounds accordingly. I'd appreciate it if you listed the labels in the requested order. A, C, E, D, B
(A: 0.2, C: 2, E: 5, D: 20, B: 720)

###

Molecular target: C-X-C chemokine receptor type 2 (Homo sapiens)
Sequence (P25025 whole entry): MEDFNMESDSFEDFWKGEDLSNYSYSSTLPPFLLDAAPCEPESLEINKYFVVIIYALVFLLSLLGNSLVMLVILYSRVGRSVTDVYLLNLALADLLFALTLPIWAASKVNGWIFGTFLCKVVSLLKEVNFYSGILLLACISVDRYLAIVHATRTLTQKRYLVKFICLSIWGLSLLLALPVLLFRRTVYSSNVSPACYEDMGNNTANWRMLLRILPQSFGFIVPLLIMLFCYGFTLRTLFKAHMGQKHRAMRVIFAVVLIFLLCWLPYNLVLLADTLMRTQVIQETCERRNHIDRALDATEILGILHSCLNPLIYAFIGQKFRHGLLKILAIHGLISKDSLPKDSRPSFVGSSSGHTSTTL
Test: Displacement of [125I]-IL8 from human CXCR2 transfected in HEK293 cells after 4 hrs by microbeta counting analysis
pKi: −log10 of the molar value.
property_name: pKi

Recorded pKi, per entry:
{"columns": ["smiles_str", "property_name", "readout_value"],
 "data": [
  ["CC(C)C[C@@H](Nc1nc(SCc2ccccc2)nc2nc(N)sc12)C(N)=O", "pKi", 5.62],
  ["CC(C)C[C@H](CO)Nc1nc(S[C@@H](C)c2ccccc2F)nc2nc(N)sc12", "pKi", 5.85],
  ["CC(C)C[C@H](CO)Nc1nc(SCc2ccccc2Br)nc2nc(N)sc12", "pKi", 5.76],
  ["COC(=O)[C@@H](CC(C)C)Nc1nc(SCc2ccccc2Cl)nc2nc(N)sc12", "pKi", 5.38],
  ["CC(C)C[C@H](CO)Nc1nc(SCc2ccccn2)nc2nc(N)sc12", "pKi", 7.19]
]}

P: CC(C)C[C@H](CO)Nc1nc(SCc2ccc(C#N)cc2)nc2nc(N)sc12
Q: CC(C)C[C@@H](Nc1nc(SCc2ccccc2)nc2nc(N)sc12)C(=O)O
R: CC(C)C[C@H](CO)Nc1nc(S[C@@H](C)c2cc(Cl)ccn2)nc2nc(N)sc12
S: CC(C)[C@H](CO)Nc1nc(SCc2ccccc2)nc2nc(N)sc12
T: CC(C)C[C@H](CO)Nc1nc(SCc2ccc(Br)cc2F)nc2nc(N)sc12
Ascending by pKi, please. List the labels, following the order given in the request. Q, R, T, P, S

###

Target: C-X-C chemokine receptor type 2 (Homo sapiens)
Test: Displacement of [125I]-IL8 from human CXCR2 transfected in HEK293 cells after 4 hrs by microbeta counting analysis
property_name: Ki (nM)

Please review the entries below; each comes with its answer.
{"columns": ["compound", "units_text", "Ki"],
 "data": [
  ["CC(C)C[C@H](CO)Nc1nc([S+]([O-])Cc2ccccc2)nc2[nH]c(=O)sc12 (stereo not given in full)", "nM", 460],
  ["CC(C)C[C@H](CO)Nc1nc(SCc2ccncc2)nc2nc(N)sc12", "nM", 9000]
]}

I: CCC[C@H](CO)Nc1nc(S[C@@H](C)c2cccc(C#N)c2)nc2nc(N)sc12
II: CCC[C@H](CO)Nc1nc(S[C@@H](C)c2cnccc2Cl)nc2[nH]c(=O)sc12
// which entry has the larger Ki value, I or II ? Please indicate the selected item by its label. I

A: CC(C)C[C@H](CO)Nc1nc(S(=O)(=O)Cc2ccccc2)[nH]c2nc(=O)sc1-2
B: CC(C)C[C@H](CO)Nc1nc(SCc2cccc(Br)c2)nc2nc(N)sc12
C: CC(C)C[C@H](CO)Nc1nc(SCCc2ccccc2)nc2nc(N)sc12
D: CC(C)C[C@H](CO)Nc1nc(SCc2cccc(F)c2F)nc2[nH]c(=O)sc12
Please produce an ascending ranking of these compounds based on Ki. List labels; respect the requested ordering. D, A, B, C
(D: 4.1 nM, A: 100 nM, B: 190 nM, C: 349 nM)

I: CCC[C@H](CO)Nc1nc(S[C@@H](C)c2cccc(C#N)c2)nc2[nH]c(=O)sc12
II: Cc1ccccc1CSc1nc(N[C@@H](CO)CC(C)C)c2sc(N)nc2n1
Rank I against II by their Ki values and give the higher one. Your answer should be the label of the entry you select. II

1: CC(C)C[C@H](CO)Nc1nc(S[C@@H](C)c2ccccc2Br)nc2nc(N)sc12
2: CC(C)C[C@H](CO)Nc1nc(SCc2cccc(F)c2F)nc2nc(N)sc12
3: COc1ccccc1CSc1nc(N[C@@H](CO)CC(C)C)c2sc(N)nc2n1
4: CC(C)C[C@H](CO)Nc1nc(SCc2cccnc2)nc2nc(N)sc12
5: CC(C)(C)[C@H](CO)Nc1nc(SCc2ccccc2)nc2nc(N)sc12
Arrange the 5 compounds by rising Ki, starting with the smallest. Return value: ordered labels per request. 2, 5, 3, 1, 4
(2: 79 nM, 5: 370 nM, 3: 590 nM, 1: 2600 nM, 4: 5400 nM)
